Assay: Cytotoxicity against human RPMI cells
Assay type: functional
Settings: read-out: ED50 (the source's name)
Readout Type: EC50

| Compound | Test Value |
| --- | --- |
| COC1=C[C@@H](C)[C@@H]2C[C@H]3O[C@@H](O[C@@H]4O[C@H](CO)[C@@H](O)[C@H](O)[C@H]4O)C[C@H]4[C@](C)(O)[C@H](OC)[C@@H](O)[C@H]([C@@]2(C)C1=O)[C@@]34C [PICRASINOSIDE G] | ≤ 4 µg/mL |
| COC1=C[C@@H](C)[C@@H]2C[C@H]3O[C@@H](O[C@@H]4O[C@H](CO)[C@@H](O)[C@H](O)[C@H]4O)C[C@H]4[C@](C)(OC(C)=O)[C@@H]5OCO[C@H]5[C@H]([C@@]2(C)C1=O)[C@@]34C [PICRASINOSIDE H] | ≤ 4 µg/mL |

meta.source: ChEMBL document CHEMBL1158961
